# systemTested: DNA polymerase beta (Homo sapiens) (UniProt P06746)
# assayDetails: qHTS Assay for Inhibitors of DNA Polymerase Beta
# experimentalParameters: Pol beta primer extension/strand displacement, fluorescence kinetic; series mostly up to 114 µM
The campaign covered roughly 340,000 compounds. About 4,500 (1.3%) were called active. Not shown: some 5% with an inconclusive outcome. Calls come from the whole dose curve; as a rule, active = well fitted inhibition curve with a large enough effect; inconclusive = small, poorly fitted or top-dose-only effect, or another doubt; inactive = no such curve, though single readings can be large or run the other way. The list comes from a sample in which actives are over-represented; it also holds close analogues and randomly drawn compounds.
Respond using exactly one of the listed classes: active, inactive

Solved cases below.
1) COc1cc(NC(=O)CN2CCN(S(=O)(=O)c3ccc(Br)cc3)CC2)cc(OC)c1    inactive
2) CCc1c(C)nc2cc(-c3cccs3)[nH]n2c1=O    inactive
3) Cc1cc(C)n2nc(SCC(=O)NC(=O)NCc3ccco3)nc2n1    inactive
4) COc1ccc(CNC(=O)C(Cc2ccccc2)n2cccc2)cc1 (stereo unspecified)    inactive
5) Fc1ccc(C(Nc2ccc(Cl)c(C(F)(F)F)c2)c2nnc(-c3ccccc3)o2)cc1 (stereo unspecified)    inactive

Would you mind telling me which call this test gave `CCN(CCCNC(=O)c1cc2c(=O)n(CC)c3ccccc3c2s1)Cc1ccccc1` ? inactive

Would you mind telling me which call this test gave `COc1ccccc1CN1CCC(CNC(=O)c2cnn(-c3cccc(Cl)c3)c2C2CCN(C(=O)OC(C)(C)C)CC2)CC1` ? inactive

Would you mind telling me which call this test gave `CCCCNC(=O)c1c[nH]c2ccc(S(=O)(=O)Nc3ccc(OCC)cc3)cc2c1=O` ? inactive

Would you mind telling me which call this test gave `Cc1cc(=O)n2[nH]c(-c3cccc(Cl)c3)cc2n1` ? inactive

Would you mind telling me which call this test gave `Cc1nc2c(c(C)nn2-c2ccccc2)c(C)c1CCC(=O)NCCc1ccc(Cl)cc1` ? inactive

Would you mind telling me which call this test gave `Cc1ccc(-c2nn(CCC(=O)Nc3ccc(OC(F)(F)F)cc3)c(=O)c3ccccc23)cc1` ? inactive

Would you mind telling me which call this test gave CC1CN(C(=O)N2CCC(C(=O)NCc3cccs3)CC2)c2ccccc2O1 (stereo unspecified) ? inactive
